B1: Nuclear receptor subfamily 4 group A member 2, residues 260 to 336; numbered along this chain, P43354 (parent)
chain: EGLCAVCGDNAACQHYGVRTCEGCKGFFKRTVQKNAKYVCLANKNCPVDKRRRNRCQYCRFQKCLAVGMVKEVVRTD

- Variants of: B1
- experimental.protocol: abundance fitness (aPCA) (normalised: wild type 0, dead -1); higher = more abundant; growth selection in yeast, the domain comes from the species named
- condition: Homo sapiens
measurement.label: abundance fitness
Numbers only.

Known abundance fitness results, listed for orientation:
residue.sequence	assay.value
EGLCAVCGDNAACQHYGVRTCEGCKGFFKRTVQKNAKYVCLANKNCPVDKRRRNRCQYCRFQKCLAVGMVKEVVRTK [D77K]	-0.1
EGLCAVCGDNAACQHYGVLTCEGCKGFFKRTVQKNAKYVCLANKNCPVDKRRRNRCQYCRFQKCLAVGMVKEVVRTD [R19L]	0.026
EGLCAVCGDNAACQHYGVRTCEGCKGFFKRTVQKHAKYVCLANKNCPVDKRRRNRCQYCRFQKCLAVGMVKEVVRTD [N35H]	-0.13
EGLCAVCGDNAACQHYGVRTCEGCKGFFKRTVQKNAKYVCLANKNCPVDCRRRNRCQYCRFQKCLAVGMVKEVVRTD [K50C]	-0.115
EGLCAVCGDNAACQHYGVRTCEGCKGFIKRTVQKNAKYVCLANKNCPVDKRRRNRCQYCRFQKCLAVGMVKEVVRTD [F28I]	-0.262
EGLCAVCGDNAACQHYGVRTCEGCKGFFKRTVQKCAKYVCLANKNCPVDKRRRNRCQYCRFQKCLAVGMVKEVVRTD [N35C]	0.141
EGLCAVCGDNAACQHYGVRTCWGCKGFFKRTVQKNAKYVCLANKNCPVDKRRRNRCQYCRFQKCLAVGMVKEVVRTD [E22W]	-0.208
EGLCAVCGDNAACQHYGVRTCEGCKGFFKRTVQKNAKYVCLANKNCPVDKRRRNRCQYCRFQKCLAVGMVKEVDRTD [V74D]	0.131

State the recorded abundance fitness for every item in the following list.
1. EGLCAVCGDNAACQHYGVRTCEGCKGFFKRTVQKNAKYVCLANKNCPVDKRRRNRCQYCRFQKCLAVGMVKEVVRTM [D77M]
2. EGLCAVCGDNAACQHYGVRTCEGCKGFFKRTVQKNAKYVCTANKNCPVDKRRRNRCQYCRFQKCLAVGMVKEVVRTD [L41T]
3. EGLCAVCGDNAACQHYGVRTCEGCKGFFKRTVQKNAKYVCLANRNCPVDKRRRNRCQYCRFQKCLAVGMVKEVVRTD [K44R]
4. EGLCAVCGDNAACQHYGVRTCEGCKGFFKRTVQKNAKYVCLANKNCPVDKTRRNRCQYCRFQKCLAVGMVKEVVRTD [R51T]
5. EGLCAVCGDNAACQHYGVRTCEGCEGFFKRTVQKNAKYVCLANKNCPVDKRRRNRCQYCRFQKCLAVGMVKEVVRTD [K25E]

1. -0.092
2. -0.08
3. -0.03
4. 0.166
5. 0.049

Would you be so kind as to report abundance fitness for each listed record?
1. EGLCAVCGDNAACQVYGVRTCEGCKGFFKRTVQKNAKYVCLANKNCPVDKRRRNRCQYCRFQKCLAVGMVKEVVRTD [H15V]
2. EGLCAVCGDNAAYQHYGVRTCEGCKGFFKRTVQKNAKYVCLANKNCPVDKRRRNRCQYCRFQKCLAVGMVKEVVRTD [C13Y]
3. EGLCAVCGDNAACQHYGVRTCEGCKGTFKRTVQKNAKYVCLANKNCPVDKRRRNRCQYCRFQKCLAVGMVKEVVRTD [F27T]
4. EGLCAVCGDNAACQHYGVRTCEGCKGFFKRTVQKNAKYVCLANKNCPVDKRRRNREQYCRFQKCLAVGMVKEVVRTD [C56E]

1. 0.016
2. -0.138
3. -1.04
4. -0.894

Quick request: abundance fitness for each listed item, please.
1. EGLCAVCGDNAAVQHYGVRTCEGCKGFFKRTVQKNAKYVCLANKNCPVDKRRRNRCQYCRFQKCLAVGMVKEVVRTD [C13V]
2. EGLCAVCGDNAACQHYGVRTCEGCKGFFKRTVQKNAKYVCLANKNCPVDKRRRNRCQYCRFQKCLAVGMVKEVVRND [T76N]
3. EGLCAVCGDNAACQHYGVRTCEGCKGFFKRTVQKNAKYACLANKNCPVDKRRRNRCQYCRFQKCLAVGMVKEVVRTD [V39A]

1. 0.046
2. 0.221
3. -0.107

Hi team, please reply with abundance fitness for each item in this list.
1. EGLCAVCGDNAACQHYGRRTCEGCKGFFKRTVQKNAKYVCLANKNCPVDKRRRNRCQYCRFQKCLAVGMVKEVVRTD [V18R]
2. EGLCAVCGDNAACYHYGVRTCEGCKGFFKRTVQKNAKYVCLANKNCPVDKRRRNRCQYCRFQKCLAVGMVKEVVRTD [Q14Y]

1. -0.29
2. 0.572
